- assay_conditions: 358.15 K; 101.33 kPa; Liquid; Concentric cylinders viscometry
endpoint: viscosity (mPa·s)

IN: Fill in the blank: the reported viscosity of CCCCCCCC/C=C\CCCCCCCC(=O)[O-].CCCCCC[N+](CCCCCC)(CCCCCC)CCCCCC [tetrahexylammonium oleate] is ____.
OUT: 55.5

a: CCCCCCCC/C=C\CCCCCCCC(=O)[O-].CCCCCCCC[N+](CCCCCCCC)(CCCCCCCC)CCCCCCCC [tetraoctylammonium oleate]
b: CCCCC(CC)CCC(=O)[O-].CCCCCCCC[N+](C)(CCCCCCCC)CCCCCCCC [methyltrioctylammonium 4-ethyloctanoate]
IN: Quick check, higher viscosity between a and b ? Answer format: the label of the selected item.
OUT: b

Reference source for all entries: the NIST ThermoML archive (doi:10.1016/j.jct.2016.04.021)
